The following molecules are shown together with reported Potency values.
test: Cell Viability - Hek293 (AID 427); conditions: qHTS;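 also: potency is read from the fitted curve at half-maximal effect; cells exposed to compound for 40 hours at 37 °C before reading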
Inconclusive results are not listed. Activity calls are given as the source filed them.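 The calls were made as follows: active = compounds whose dose-response curve shows a full or clear partial loss of cell viability, called from curve shape rather than a numeric limit; inconclusive = weak partial curves or an effect only at the top dose; inactive = no dose-dependent loss of viability.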
READOUT_NAME: Potency

{"SMILES_STRUCTURE": "CCc1cc(C(N)=S)ccn1", "READOUT_NAME": "Potency", "RESULT": "> 92 µM (inactive)"}
{"SMILES_STRUCTURE": "CC[C@H](C)C(=O)O[C@H]1C[C@@H](C)C=C2C=C[C@H](C)[C@H](CC[C@@H]3C[C@@H](O)CC(=O)O3)[C@H]21", "READOUT_NAME": "Potency", "RESULT": "> 92 µM (inactive)"}
{"SMILES_STRUCTURE": "CC1=NN(c2ccccc2)C(=O)C1", "READOUT_NAME": "Potency", "RESULT": "> 92 µM (inactive)"}
{"SMILES_STRUCTURE": "Cc1noc(NS(=O)(=O)c2ccc(N)cc2)c1C", "READOUT_NAME": "Potency", "RESULT": "> 92 µM (inactive)"}
{"SMILES_STRUCTURE": "CC(=O)Oc1ccccc1C(=O)Nc1ncc([N+](=O)[O-])s1", "READOUT_NAME": "Potency", "RESULT": "32.6 µM (active)"}
{"SMILES_STRUCTURE": "Cc1ccnc2c1NC(=O)c1cccnc1N2C1CC1", "READOUT_NAME": "Potency", "RESULT": "> 92 µM (inactive)"}
{"SMILES_STRUCTURE": "CN(C)c1ccc(C(=C2C=CC(=[N+](C)C)C=C2)c2ccc(N(C)C)cc2)cc1", "READOUT_NAME": "Potency", "RESULT": "5.18 µM (active)"}
{"SMILES_STRUCTURE": "NC(N)=NC(N)=NCCc1ccccc1", "READOUT_NAME": "Potency", "RESULT": "> 92 µM (inactive)"}
{"SMILES_STRUCTURE": "CC(=O)[C@H]1CC[C@H]2[C@@H]3CCC4=CC(=O)CC[C@]4(C)[C@H]3CC[C@]12C", "READOUT_NAME": "Potency", "RESULT": "48.5 µM (active)"}
{"SMILES_STRUCTURE": "O=C(O)c1cc(=O)[nH]c(=O)[nH]1", "READOUT_NAME": "Potency", "RESULT": "> 92 µM (inactive)"}
{"SMILES_STRUCTURE": "C[C@]12C=CC(=O)C=C1CC[C@@H]1[C@@H]2C(=O)C[C@@]2(C)[C@H]1CC[C@]2(O)C(=O)CO", "READOUT_NAME": "Potency", "RESULT": "> 92 µM (inactive)"}
